Assay: Tanguay_ZF_120hpf_EYE_legacy: (Legacy) Oregon State University Tanguay Lab 120 Hour Post-fertilization zebrafish Assay for Eye Malformation (AID 2283636);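 also: binary presence or absence of eye malformation scored by brightfield in 120 hpf larvae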
Records with an inconclusive call do not appear. Activity calls are given as the source filed them. The calls were made as follows: active = hit-call score of the fitted dose curve at least 0.9, where 1 is the maximum; inconclusive = response in the unintended direction; inactive = score below 0.9.
Outcomes: 1.0 (active), 0.0 (inactive)

{"columns": ["compound", "class_name"],
 "data": [
  ["CC(C)(C)c1ccc(O)cc1", 0.0],
  ["O=[N+]([O-])c1ccccc1", 0.0],
  ["Nc1ccc2ccccc2c1", 1.0],
  ["[N-]=[N+]=[N-]", 0.0],
  ["O=P(Oc1ccccc1)(Oc1ccccc1)Oc1ccccc1", 0.0],
  ["Cc1cccc(N)c1", 0.0],
  ["CN(C)C(=O)Cl", 0.0],
  ["O=P1(N(CCCl)CCCl)NCCCO1 (stereo not drawn)", 0.0],
  ["O=C(O)C(Cl)Cl", 0.0],
  ["OCC1CO1 (stereo not drawn)", 0.0],
  ["c1ccc2c(c1)Nc1ccccc1S2", 0.0],
  ["Cc1ccc(N)cc1N", 0.0],
  ["Cc1ccc(O)cc1C", 0.0]
]}

====

Experiment: ATG_SREBP_CIS: Attagene CIS-FACTORIAL HepG2 Assay for human Sterol Regulatory Element Binding (SREBP) (AID 2282962)
Conditions: HepG2 Attagene cis-factorial SREBP reporter, mRNA; actives raise or lower the signal
The source made the active and inactive calls. Rule for the calls: active = hit-call score of the fitted dose curve at least 0.9, where 1 is the maximum; inactive = score below 0.9.

{"columns": ["compound", "AC50"],
 "data": [
  ["O=C(O)C(F)(F)OC(F)(F)C(F)(F)OC(F)(F)F", "inactive"],
  ["CCCCC(CC)COP(=O)(Oc1ccccc1)Oc1ccccc1 (stereo not drawn)", "35.4 µM (active)"],
  ["ClC(Cl)=C(c1ccc(Cl)cc1)c1ccccc1Cl", "98.5 µM (active)"],
  ["CSC(C)(C)C=NO", "inactive"],
  ["COC(=O)C(F)(F)C(F)(F)OC(F)(C(F)(F)F)C(F)(F)OC(F)=C(F)F (stereo not drawn)", "inactive"],
  ["CC(C)CBr", "inactive"],
  ["COP(=O)(O)OC", "inactive"],
  ["Nc1ccc(Sc2ccc(N)cc2)cc1", "inactive"]
]}

====

Read-out: Interleukin-1 alpha (IL1a), IL1A (gene 3552)
Experiment: BSK_KF3CT_IL1a: BioMAP Diversity Plus: KF3CT Assay for Interleukin-1 alpha (IL1a) Biomarker Activity (AID 2283070)
Details: primary human keratinocytes with fibroblasts; actives raise or lower the signal
Activity calls are given as the source filed them. The calls were made as follows: active = hit-call score of the fitted dose curve at least 0.9, where 1 is the maximum; inactive = score below 0.9.
Outcomes: active, inactive

{"columns": ["molecule", "class_name"],
 "data": [
  ["c1nc[nH]n1", "inactive"],
  ["C=CC(=O)OCC(CC)(COC(=O)C=C)COC(=O)C=C", "active"],
  ["CN(C)C(=O)Cl", "inactive"],
  ["CCOP(=S)(NC(C)C)Oc1ccccc1C(=O)OC(C)C (centres undefined)", "inactive"],
  ["CCOS(=O)(=O)OCC", "inactive"],
  ["CC(Cc1ccc(OCC(=O)O)cc1)NCC(O)c1csc(C(F)(F)F)n1 (centres undefined)", "inactive"],
  ["CCOP(=S)(Oc1ccc([N+](=O)[O-])cc1)c1ccccc1 (centres undefined)", "inactive"],
  ["CCCCC(CC)COC(=O)c1c(Br)c(Br)c(Br)c(Br)c1C(=O)OCC(CC)CCCC (centres undefined)", "inactive"],
  ["CCOP(=S)(OCC)SCn1nnc2ccccc2c1=O", "inactive"],
  ["Cc1cccc(N)c1", "inactive"],
  ["NC(=O)C(F)(F)C(F)(F)F", "inactive"],
  ["O=[N+]([O-])c1ccc(Cl)c(Cl)c1", "inactive"],
  ["O=C(O)C=CC(F)(C(F)(F)F)C(F)(F)F", "inactive"],
  ["Cc1ccc(O)cc1C", "inactive"],
  ["Cc1ccc2c(c1N)C(=O)c1ccccc1C2=O", "inactive"],
  ["CCC(C)(C)c1ccc(O)cc1", "inactive"],
  ["CSC(C)(C)C=NO", "inactive"],
  ["CCNc1nc(Cl)nc(NC(C)(C)C)n1", "inactive"],
  ["Nc1ccc2ccccc2c1", "inactive"],
  ["CCCN(CCC)c1c([N+](=O)[O-])cc(C(C)C)cc1[N+](=O)[O-]", "inactive"],
  ["CC(O)C(F)(F)C(F)(F)F (centres undefined)", "inactive"],
  ["O=C(O)C(F)(F)OC(F)(F)C(F)(F)OC(F)(F)C(=O)O", "inactive"],
  ["CCCCN(CCCC)SN(C)C(=O)Oc1cccc2c1OC(C)(C)C2", "inactive"],
  ["O=c1ssc(Cl)c1Cl", "active"],
  ["COCCOCCO", "inactive"],
  ["O=C(O)C(Cl)Cl", "inactive"],
  ["CCOC(=O)c1ccccc1C(=O)OCC", "inactive"],
  ["CCOP(=S)(S)OCC", "inactive"],
  ["OCC1CO1 (centres undefined)", "inactive"],
  ["N#Cc1cc([N+](=O)[O-])ccc1N", "inactive"],
  ["CCCCOCCOP(=O)(OCCOCCCC)OCCOCCCC", "inactive"],
  ["CCCCC(CC)COP(=O)(Oc1ccccc1)Oc1ccccc1 (centres undefined)", "active"],
  ["O=P(OCC(Br)CBr)(OCC(Br)CBr)OCC(Br)CBr (centres undefined)", "inactive"],
  ["ClC(Cl)=C(c1ccc(Cl)cc1)c1ccccc1Cl", "active"],
  ["ClC1=C(Cl)C2(Cl)C3C(Cl)C(Cl)CC3C1(Cl)C2(Cl)Cl (centres undefined)", "active"],
  ["CC(Cl)(Cl)C(=O)O", "inactive"],
  ["OCC(F)(F)OC(F)(F)C(F)(F)OC(F)(F)CO", "inactive"],
  ["Cc1ccc([N+](=O)[O-])cc1C", "inactive"],
  ["CCCCc1ccccc1", "inactive"],
  ["CC(C)(C)c1ccc(O)cc1", "inactive"],
  ["Cc1c([N+](=O)[O-])cc2c(c1[N+](=O)[O-])C(C)(C)CC2(C)C", "inactive"],
  ["Nc1ccc(Cl)cc1", "inactive"],
  ["[N-]=[N+]=[N-]", "inactive"],
  ["O=C(O)C1C(C(=O)O)C2(Cl)C(Cl)=C(Cl)C1(Cl)C2(Cl)Cl (centres undefined)", "inactive"],
  ["O=C(O)C(F)(F)C(F)(F)C(=O)O", "inactive"],
  ["Cc1ccc(N)cc1N", "inactive"],
  ["CCCCN(CCCC)N=O", "inactive"],
  ["CCOP(=S)(OCC)SCSc1ccc(Cl)cc1", "active"],
  ["COC(=O)C(F)(F)C(F)(F)OC(F)(C(F)(F)F)C(F)(F)OC(F)=C(F)F (centres undefined)", "inactive"],
  ["Nc1ccc([N+](=O)[O-])cc1Cl", "inactive"],
  ["CCOP(=S)(OCC)SCS(=O)(=O)CC", "inactive"],
  ["CCC1(c2ccccc2)C(=O)N=C(O)NC1=O (centres undefined)", "inactive"],
  ["OCC(F)(F)OC(F)(F)C(F)(F)OC(F)(F)C(F)(F)OC(F)(F)CO", "inactive"],
  ["CCOc1ccc(C(C)(C)COCc2cccc(Oc3ccccc3)c2)cc1", "inactive"]
]}
